# Test system: MCF7 breast
# experimental.details: NCI-60 one-dose screen, 48 h (100 = growth as untreated, 0 = no growth, -100 = all killed)
# cond: 10 µM unless noted
Compounds without any hit were thinned out: in the full panel of roughly 83,000, 20% have a hit.
Lab note: anything with growth at or over 10% counts as Condition met; the rest go in Condition not met.

Inquiry: Confirm if growth reported for the compound O=C1/C(=C/C=C/c2ccco2)SC(=S)N1CC(=S)C1C=CS(=O)(=O)C1 (stereo not given) is 10% or above.
Reply text: Condition met

Inquiry: Entry Cc1nc(N)ncc1-c1ccc2ncnc(N3CCc4cc(F)c(Cl)cc43)c2c1 : is its growth no less than 10%?
Reply text: Condition met

Inquiry: Does growth meet or surpass 10% for Cc1ccc(C(=O)C[n+]2cccc3c4ccccc4ccc32)cc1 ?
Reply text: Condition met

Inquiry: Does CN(CCSSCCN1CCOCC1)C(=O)Oc1cc2c(c3ccccc13)[C@H](CCl)CN2C(=O)c1cc2cc(OCCCN3CCC3)ccc2[nH]1 have a reported growth of at least 10%?
Reply text: Condition not met

Inquiry: // inclusive: growth at least 10%? input: O=C(NN1C(=O)/C(=C/C=C/c2ccc([N+](=O)[O-])o2)SC1=S)c1ccc(O)cc1
Reply text: Condition not met

###

# Test system: SF-268 CNS
# experimental.details: NCI-60 one-dose screen, 48 h (100 = growth as untreated, 0 = no growth, -100 = all killed)
# cond: 10 µM unless noted
About 83,000 compounds went through this panel and 20% of them were active in at least one assay; those are over-represented in the sample as a whole.
Please go through the items and note down their growth.
Return type: number; implicit unit %.

Inquiry: Recorded growth for S=C(Nc1ccc(OCc2nc3ccc(Cl)cc3[nH]2)cc1)NC1CCCCC1 with SF-268 CNS, please?
Reply text: 5.6

Inquiry: Record lookup: for SF-268 CNS, what growth belongs to CCCn1c(NC(=O)c2cccc(C(N)=O)c2)nc2ccc(CN3CCCCC3)cc21 ?
Reply text: 107

Inquiry: Reported growth for SF-268 CNS, given c1n[nH]cc1-c1nc2ccc3[nH]ncc3c2c2c1CC1(CC2)COC1 ?
Reply text: 63.6

Inquiry: Given the entry Cc1ccc2nc(COc3ccc(C(=O)NNC(=O)Nc4ccc(Cl)c(C(F)(F)F)c4)cc3)[nH]c2c1 , what growth was observed with SF-268 CNS?
Reply text: 40.1

Inquiry: Requested read-out growth, target or system SF-268 CNS, entry N#Cc1c(-c2ccc(F)cc2)nc(SCc2ccc(F)cc2)nc1N1CCNCC1
Reply text: 41.5

Inquiry: Value wanted: growth (SF-268 CNS) of entry COc1ccc(C(=O)/C=C/c2ccc3c(c2)OCCO3)cc1S(N)(=O)=O
Reply text: 111

Inquiry: Recall the recorded growth for CN(C)CCOc1ccc(C(=O)C2[C@H](c3ccc(Cl)cc3)[C@@H](c3ccccc3)NC23C(=O)Nc2ccc(Cl)cc23)cc1 (stereo not given in full) with SF-268 CNS and state it.
Reply text: -64

Inquiry: Lab request: please report growth under test system SF-268 CNS for COc1sc(/C=N/NC(=O)c2[nH]c3ccc(Br)cc3c2-c2ccccc2)cc1Br
Reply text: 3.22

Inquiry: Hi! What's the reported growth for COC(=O)c1cc(C(=O)CBr)n2c1ccc1c3ccccc3ccc12 on SF-268 CNS?
Reply text: 74.7

Inquiry: Reported growth for SF-268 CNS, given O=C(c1cc2cc(OCCCN3CCC3)ccc2[nH]1)N1C[C@@H](CCl)c2c1cc(OCc1ccccc1)c1ccccc21 ?
Reply text: 0.226

Inquiry: Please tell me: growth of O=C(/C=C1\C(=O)N(Cc2ccccc2)c2ccccc21)c1cc2ccccc2oc1=O , system SF-268 CNS?
Reply text: 95.6

Inquiry: Query for SF-268 CNS: what growth does the record show for O=C(NNC(=S)NC(=O)c1ccccc1)c1ccc(OCc2nc3ccc(Cl)cc3[nH]2)cc1 ?
Reply text: -2.2

Inquiry: Enter reported growth observed with SF-268 CNS for CC(=O)c1c2c(c3ccc4c5ccccc5ccc4n13)C(=O)c1ccccc1C2=O
Reply text: 98

Inquiry: Quick check: growth on SF-268 CNS, item Oc1ccc(Cl)c(Nc2ncnc3c2cnn3CC(Cl)c2ccc(Br)cc2)c1 (stereo not given) ?
Reply text: 26.7

Inquiry: So what growth did O=C(N/N=C/c1c[nH]c2ccccc12)Nc1ccc(F)c(Cl)c1 get with SF-268 CNS?
Reply text: 39.7
